Where do the numbers come from? From the RNAGym collection of RNA variant scans (doi:10.7554/elife.80360).

B1: Twister Ribozyme (parent)
chain: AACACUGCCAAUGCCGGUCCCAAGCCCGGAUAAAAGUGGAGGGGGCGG

- Variants of: B1
- MEASUREMENT_PROTOCOL: self-cleavage, relative activity (ratio to wild type); higher = more cleavage; co-transcriptional
Could you please report measured self-cleavage for the items listed next?
Numbers only.

For each of the variants below, note its self-cleavage.
1. G7U G48U
2. C20U G47U
3. C15G C26G
4. C9G G44A
5. G7C C20A
6. C9U G39A

Output:
1: 0.0928; 2: 0.564; 3: 0.0537; 4: 0.731; 5: 0.0744; 6: 0.139

For the 3 variants below, give their self-cleavage values.
1. C27U U37A
2. A10G G36A
3. A32G C46G

Output:
0.444
0.786
0.854

List self-cleavage for every entry below, keeping the order given.
1. C15U U18G
2. C25G C27A
3. G7A G13A
4. G38A G43C
5. C25G G43C

Output:
1: 0.0578; 2: 0.105; 3: 0.0834; 4: 0.148; 5: 0.124

Give one value of self-cleavage per listed variant.
1. U37C G44A
2. C5U A33U
3. U6A C8G
4. C3A C27U
5. C19G C25U

Output:
0.69
0.714
0.106
0.183
0.151

Batch request: self-cleavage per item, same order as input.
1. A1G G39U
2. G7A G28A
3. A1G A11U
4. A4C U12G

Output:
[0.198, 0.215, 0.47, 0.332]

Go through the items and report each one's self-cleavage.
1. A11G A34C
2. C8A A23C
3. C20G C21G

Output:
1. 0.353
2. 0.0825
3. 0.103

Please give self-cleavage for each item listed below.
1. G38U G41C
2. C21A G48A

Output:
1: 0.149; 2: 0.107

Could I get self-cleavage for every one of these entries?
1. G28U A33U
2. A22C G43A
3. C20U G44A
4. A34U G38C
5. C14G A33C
6. G16C A40U

Output:
1: 0.833; 2: 0.183; 3: 1; 4: 0.638; 5: 0.176; 6: 0.114
